Numbers sourced from patent US20090082203A1.

Test system: tobacco budworm (Heliothis virescens [Fabricius])
Test: surface-treated diet test against tobacco budworm
Assay type: in vivo
Details: 0.25 millimolar on the surface of the diet; second instar larvae; five-day exposure; compared to the total number of insects infested

compound	Percent Mortality (%)
CC1COC(c2ccc(CN3CCC(C(O)(c4ccc(OC(F)(F)F)cc4)c4ccc(OC(F)(F)F)cc4)CC3)cc2)O1 (stereo not drawn) [Compound 3]	100
OC(c1ccc(OC(F)(F)F)cc1)(c1ccc(OC(F)(F)F)cc1)C1CCN(Cc2ccc(C3OCC=CCO3)cc2)CC1 [Compound 58]	100
CC1CCOC(c2ccc(C[N+]3([O-])CCC(C(O)(c4ccc(OC(F)(F)F)cc4)c4ccc(OC(F)(F)F)cc4)CC3)cc2)O1 (stereo not drawn) [Compound 68]	100

----------
Test system: tobacco budworm (Heliothis virescens [Fabricius])
Assay: surface-treated diet test against tobacco budworm
Format: in vivo
Conditions: 0.25 millimolar on the surface of the diet; second instar larvae; five-day exposure; inhibition of insect weight relative to untreated controls
measurement-kind: Percent Growth Inhibition (%)

compound	measured-target	unit-tag	readout-number
CC1(C)COC(c2ccc(C[N+]3([O-])CCC(C(O)(c4ccc(OC(F)(F)F)cc4)c4ccc(OC(F)(F)F)cc4)CC3)cc2)O1 (stereo not drawn)	tobacco budworm (Heliothis virescens [Fabricius])	%	100
OC(c1ccc(OC(F)(F)F)cc1)(c1ccc(OC(F)(F)F)cc1)C1CCN(Cc2ccc(C3OCCO3)c(Cl)c2)CC1	tobacco budworm (Heliothis virescens [Fabricius])	%	100
OC(c1ccc(OC(F)(F)F)cc1)(c1ccc(OC(F)(F)F)cc1)C1CCN(Cc2ccc(C3(c4ccccc4)OCCO3)cc2)CC1	tobacco budworm (Heliothis virescens [Fabricius])	%	100
CC1CC(C)(C)OC(c2ccc(CN3CCC(C(O)(c4ccc(OC(F)(F)F)cc4)c4ccc(OC(F)(F)F)cc4)CC3)cc2)O1 (stereo not drawn)	tobacco budworm (Heliothis virescens [Fabricius])	%	100
OC(c1ccc(Cl)c(Cl)c1)(c1ccc(Cl)c(Cl)c1)C1CCN(Cc2ccc(C3OCCO3)cc2)CC1	tobacco budworm (Heliothis virescens [Fabricius])	%	100
[O-][N+]1(Cc2ccc(C3OCCCCO3)cc2)CCC(C(O)(c2ccc(OC(F)(F)F)cc2)c2ccc(OC(F)(F)F)cc2)CC1 (stereo not drawn)	tobacco budworm (Heliothis virescens [Fabricius])	%	100

----------
The entries below are paired with their reported Percent Growth Inhibition.
Test system: tobacco budworm (Heliothis virescens [Fabricius])
Experiment: surface-treated diet test against tobacco budworm
Format: in vivo
Conditions: 0.25 millimolar on the surface of the diet; second instar larvae; five-day exposure; inhibition of insect weight relative to untreated controls
measurement-kind: Percent Growth Inhibition (%)

compound	measurement-kind	readout-number
Cc1cc(CN2CCC(C(O)(c3ccc(OC(F)(F)F)cc3)c3ccc(OC(F)(F)F)cc3)CC2)ccc1C1OCCO1	Percent Growth Inhibition	100
CC1COC(COc2ccc(C[N+]3([O-])CCC(C(O)(c4ccc(OC(F)(F)F)cc4)c4ccc(OC(F)(F)F)cc4)CC3)cc2)O1 (stereo not drawn)	Percent Growth Inhibition	100
CCCCN1CCSC1c1ccc(CN2CCC(C(O)(c3ccc(OC(F)(F)F)cc3)c3ccc(OC(F)(F)F)cc3)CC2)cc1 (stereo not drawn)	Percent Growth Inhibition	100

----------
System: tobacco budworm (Heliothis virescens [Fabricius])
Assay: surface-treated diet test against tobacco budworm
Format: in vivo
Details: 0.25 millimolar on the surface of the diet; second instar larvae; five-day exposure; compared to the total number of insects infested

compound	unit-tag	Percent Mortality
CC(C)N1CCOC1c1ccc(CN2CCC(C(O)(c3ccc(OC(F)(F)F)cc3)c3ccc(OC(F)(F)F)cc3)CC2)cc1 (stereo not drawn)	%	50
C=CC1COC(c2ccc(CN3CCC(C(O)(c4ccc(OC(F)(F)F)cc4)c4ccc(OC(F)(F)F)cc4)CC3)cc2)O1 (stereo not drawn)	%	100
CCCCN1CCOC1c1ccc(CN2CCC(C(O)(c3ccc(OC(F)(F)F)cc3)c3ccc(OC(F)(F)F)cc3)CC2)cc1 (stereo not drawn)	%	100
CC1(C)CCOC(c2ccc(CN3CCC(C(O)(c4ccc(OC(F)(F)F)cc4)c4ccc(OC(F)(F)F)cc4)CC3)cc2)O1 (stereo not drawn)	%	100
C=CCOCC1COC(c2ccc(CN3CCC(C(O)(c4ccc(OC(F)(F)F)cc4)c4ccc(OC(F)(F)F)cc4)CC3)cc2)O1 (stereo not drawn)	%	100
CC1CC(C)(C)OC(c2ccc(C[N+]3([O-])CCC(C(O)(c4ccc(OC(F)(F)F)cc4)c4ccc(OC(F)(F)F)cc4)CC3)cc2)O1 (stereo not drawn)	%	100
